ASSAY REMARKS: Part A single-ascending-dose plasma PK in healthy subjects
Format: in vivo, human
CONDITION DETAILS: human, plasma, iv, 1 g, part A cohort 8 (elderly subjects >65 years), single 1.0 g, 3-h i.v. infusion
Protocol: This was a 4-part, double-blind, placebo-controlled study (15 cohorts) of DUR administered as a 3-h i.v. infusion (except for cohort 4, in which a 2-h i.v. infusion was evaluated) (see Table S5 in the supplemental material). […] AUC was calculated using the log-linear trapezoidal rule. […]
MEASUREMENT KIND: clearance (mL/min)
Enter your answer as a number in mL/min; do not include the unit.

Query block: I'd like to know its clearance. The compound in question is CC1=C[C@@H]2CN(C(=O)N2OS(=O)(=O)O)[C@@H]1C(N)=O
Result block: 112
